# System: MS2 coat protein
# assay text: apparent KD of MS2 coat protein, switch OFF state (with FMN for OFF switches, without FMN for ON switches); designed switch direction (-1 OFF switch, 1 ON switch): -1; higher = weaker reporter binding
# measurement parameters: FMN input: 0 or 200 uM; Eterna round: R93 (includes R88 designs)
Please mark true if the recorded apparent KD of MS2 coat protein is equal to or greater than 60 nM, and false if it falls below.

Please check the record CGCAAACAUGAGGAUCACCCAUGUGAGGAUAUGUGAGCACGAGAAAGAUAAAGUGAGCACAGAAGGCACAAGCG [JR_Exclusion1_Sub6] and state if its apparent KD of MS2 coat protein is at or above 60 nM.
false

Decide: is the reported value of apparent KD of MS2 coat protein for GAUAGUGAAGGAUAUACUGGAGGAGUGCGAUAAAAGAAAGAACAUGAGGAUCACCCAUGUAGAAGGUCAGAAGU [JR_Exc002_Sub1226] equal to or greater than 60 nM?
false

Identify whether the reported apparent KD of MS2 coat protein of the following sequence is 60 nM or greater: AGCUAGUGAGGAUAUACGAACAAGUAAACGGACUGUAAGGGACAUGAGGAUCACCCAUGUAGAAGGCACUAGCA [Diamond 59]
true

Assess whether reported apparent KD of MS2 coat protein for AAGAAACAUGAGGAUCACCCAUGUAAGGAUAUGAAAAAGAAAAGAAAAGAAAGAAGAAUCAGAAGGUACAAAGG [Nakhtnebtepnefer Intef III] sits at 60 nM or higher.
false

Reported apparent KD of MS2 coat protein at or above 60 nM? AAGAAGUCAGGAUAUGCCAGAGAUCACGAAAGUGACUAAGGGCAGAAGGGACAUGAGGAUCACCCAUGUAAAGA [Opal 5]
true

Threshold query (apparent KD of MS2 coat protein >= 60 nM) on AAAGGCUUAGGAUAUACAGUGGUCCCAAUGGGCAUCCGAAAACAUGAGGAUCACCCAUGUAGAAGGAAGAAAAU [Raleor]
true

Check this sequence for apparent KD of MS2 coat protein at or above 60 nM: GAAAAGUGAGGAUAUACAUGAGGAUCACCCAUGUGUAUAAAAAAAUACACAAAAGAAAGUAGAAGGCACUAAAA [Mat - Exclusion 3 - Mayanna mod - D111]
true

Reported apparent KD of MS2 coat protein at or above 60 nM? AGCAUGUGAGGAUAUGUGACCCUCGUCCUAAGGAUGAGGAAAUAGAAGGCACAUGAGGAUCACCCAUGUGAUGA [Eratusar]
true

For this sequence, is measured apparent KD of MS2 coat protein 60 nM or higher? AAAAAGUCAGGAUAUGCAGAUAAAAAAACGAAAAAAAAUCUGCAGAAGGGACAUGAGGAUCACCCAUGUAAAAA [Ex 4 May 5]
false

Can AAGACUAGAGGAUAUACAUGAGGAUCACCCAUGUAACUGUCAGGAAACUGACGGAGAAGUAGAAGGCUAGUCAA [Mat - Exclusion 3 - JL mod - D85] be said to have apparent KD of MS2 coat protein at or above 60 nM?
false

Identify whether the reported apparent KD of MS2 coat protein of the following sequence is 60 nM or greater: CAGGUACGAGGAUAUACAUAGAUACAGACACAUGUUCAAGUACAUGAGGAUCACCCAUGUAGAAGGCGUAUAUG [Mat - Same state - Mayanna Mod - D108]
true

Could you tell me if the measured apparent KD of MS2 coat protein of AAAAAGUCAGGAUAUGUCAAAGGUCACGAAAGUGACAAAGGACAGAAGGGACAUGAGGAUCACCCAUGUGGAAA [Fiskers Exclusion 4D1 65% - Late G segment 1] reaches 60 nM or more?
true

Decide: apparent KD of MS2 coat protein of AAAAACGUAGGAUAUACAUGAAAAAAAAAAAAAAAAAAAAGACAUGAGGAUCACCCAUGUAGAAGGGCGAAAAA [water's exclusion 2] >= 60 nM?
true

Does AAAAGCACAGGAUAUACAUAAUUAUGACGAAAGUCAUAAAAACAUGAGGAUCACCCAUGUAGAAGGGUGCAAAA [Mod of Meechl's... 64% 1] have a reported apparent KD of MS2 coat protein of at least 60 nM?
false

Decide: apparent KD of MS2 coat protein of AACAGGACAGGAUAUACAUGAGGAUCACCCAUGUGAAGAUUAAGAAGAAAACCACAAAGUAGAAGGGUCCUGGA [Ruby 94] >= 60 nM?
true

For this sequence, is measured apparent KD of MS2 coat protein 60 nM or higher? AAGAAGCUAGGAUAUACAUGAGGAUCACCCAUGUAAAAGAAAGAAGGGAAAGAGAAAAGUAGAAGGAGCAAGAA [Tefnakht]
false
